tested on: SK-MEL-2; assay: NCI tumour cell line growth inhibition, 48 h
Calls of active or inactive are those of the source. Cut-off read from the data, not from the text of the source: active = GI50 up to about 1.1 µM and inactive = higher.
measuredParameter: GI50

Answered examples (2):
compound: COc1ccc(OC)c(N2C(=O)/C(=C\c3ccccc3)SC2c2cc(OC)c(OC)c(OC)c2)c1 (stereo not drawn)
testedSystem: SK-MEL-2
measuredParameter: GI50
resultValue: > 100 µM (inactive)

compound: CC1=C(C(=O)Nc2ccc(Cl)c(Cl)c2)C(c2ccco2)C(C(=O)Nc2ccc(Cl)c(Cl)c2)=C(C)N1
testedSystem: SK-MEL-2
measuredParameter: GI50
resultValue: 12.4 µM (inactive)

Note: attention shifts to another entry.
Q. Please provide the recorded GI50 for CCOC1=C2C(C)(CCC3[C@@]4(C)C=CC(=O)C(C)(C)C4CC(O)[C@@]23C)C(c2ccoc2)C1=O (stereo partly drawn) , tested on SK-MEL-2.
A. 19.2 µM (inactive)

---

Measured GI50 of individual entries
test system: A549; test: NCI tumour cell line growth inhibition, 48 h
Active and inactive are the calls of the source. Cut-off read from the data, not from the text of the source: active = GI50 up to about 1.1 µM and inactive = higher.

compound: Nc1cc2c3c(c1)Oc1cc(N)cc4c1C3c1c(cc(N)cc1O4)O2
GI50: 32.5 µM (inactive)
//
compound: COc1ccc(/C=C2\CN(C)CC3=C2OC(N)=C(C#N)C3c2ccc(OC)cc2)cc1 (centres undefined)
GI50: 23 µM (inactive)
//
compound: O=C(Nn1c(-c2cccs2)nc2ccc(I)cc2c1=O)c1ccccc1
GI50: 18.8 µM (inactive)
//
compound: CC(C)N(/C(F)=N\C(=O)Nc1ccccc1C(F)(F)F)C(C)C
GI50: 52.1 µM (inactive)
//
compound: CC(=O)N(C(C)=O)C1=C2c3ccccc3N(S(=O)(=O)c3ccccc3)C2n2c(=O)n(-c3ccccc3)c(=O)n2C1 (centres undefined)
GI50: 65.6 µM (inactive)

Note: attention shifts to another entry.
Q. State the recorded GI50 for this entry: `NCS(=O)(=O)O`
A. > 100 µM (inactive)

---

test system: COLO 205; experiment: NCI tumour cell line growth inhibition, 48 h
Calls of active or inactive are those of the source. Cut-off read from the data, not from the text of the source: active = GI50 up to about 1.1 µM and inactive = higher. Residues, ends and D or L forms follow the SMILES beside them. *: point of attachment. Boc = CC(C)(C)OC(=O)*; OBn = c1ccc(CO*)cc1
Write down the outcome that applies. Available outcomes: active, inactive

molecule: CCOC(=O)[C@@H]1C[C@@H]1c1ccc(O)c(O)c1
testedSystem: COLO 205
category: inactive
--
molecule: CC(C)C(NC(=O)C(Cc1ccccc1)NC(=O)OC(C)(C)C)C(=O)NCC(=O)OCc1ccccc1 (stereo not drawn) (Boc-Phe-Val-Gly-OBn; configuration not given here)
testedSystem: COLO 205
category: inactive
--
molecule: O=C1CC2CCCC23CC2(CCN13)OCCO2 (stereo not given)
testedSystem: COLO 205
category: inactive
--
molecule: O=c1[nH]cnc2c1ncn2C1SC(CO)C(O)C1O (stereo not given)
testedSystem: COLO 205
category: inactive
--
molecule: CCOC(=O)C(=Cc1ccccc1Cl)C(=O)OCC
testedSystem: COLO 205
category: inactive
--
molecule: CCOC(=O)c1c(NC(=O)c2ccccc2)sc2c1CCCC2
testedSystem: COLO 205
category: inactive
--
molecule: Cc1nc2c(Br)cc(Br)cc2c(=O)n1-c1ccccc1NC1OC(CO)C(O)C(O)C1O (stereo not given)
testedSystem: COLO 205
category: inactive
--
molecule: CCN(CCCN(CC)C(=O)N[C@@H](Cc1ccccc1)C(=O)NC)C(=O)N[C@@H](Cc1ccccc1)C(=O)NC
testedSystem: COLO 205
category: inactive
--
molecule: O=C1OC(c2ccc(Cl)cc2)(c2ccc(Cl)cc2)c2c1ccc1ccccc21
testedSystem: COLO 205
category: inactive
--
molecule: O=C(O)c1nc2nc(Cl)c(Cl)nc2[nH]1
testedSystem: COLO 205
category: inactive

Q. Query: recorded result category for `C=CCNC1=C2C[C@@H](C)C[C@H](OC)[C@H](O)[C@@H](C)/C=C(\C)[C@H](OC(N)=O)[C@@H](OC)/C=C\C=C(/C)C(=O)NC(=CC1=O)C2=O` in this test
A. active

Q. Further, for CC(=O)O[C@H]1C(=O)[C@@]2(C)C(C(OC(=O)c3ccccc3)C3[C@@H](O)C(OC(=O)[C@@H](O)[C@H](NC(=O)c4ccccc4)c4ccc(C(F)(F)F)cc4)C(C)=C1C3(C)C)[C@]1(OC(C)=O)CO[C@@H]1C[C@@H]2O (stereo not given in full) ?
A. inactive

Q. Further, for CC1=C(C(N)=O)C(c2ccncc2)C(C#N)C(=O)N1 (stereo not given) ?
A. inactive

Q. Further, for `COc1ccc(/N=C/c2ccc(N(CCC#N)S(=O)(=O)c3ccccc3)cc2)cc1` ?
A. inactive

Q. Further, for CC(NC(=O)Cc1ccccc1)NC(=O)C(C)C(=O)NCc1ccccc1 (stereo not given) ?
A. inactive

Q. Further, for `COc1ccc(CCc2cc(OC)cc(OC)c2)cc1` ?
A. inactive

Q. Further, for COc1ccc2c(c1)CC[C@@H]1C2CC[C@]2(C)C(=O)NC(=O)CC12 (stereo not given in full) ?
A. inactive

Q. Further, for COc1ccc2c(c1)N(C(C)=O)CN1C(=O)CCC21 (stereo not given) ?
A. inactive

---

test system: OVCAR-4; assay: NCI tumour cell line growth inhibition, 48 h
Active and inactive are the calls of the source. Cut-off read from the data, not from the text of the source: active = GI50 up to about 1.1 µM and inactive = higher.
Write down the outcome that applies. Available outcomes: active, inactive

Known results for compounds:
compound: COc1cc(CNc2nc3ccccc3n2Cc2ccccc2)cc(CN2CCOCC2)c1O
testedSystem: OVCAR-4
category: inactive
//
compound: CCOC(=O)NC(Nc1ccc(S(=O)(=O)Nc2ncccn2)cc1)(C(=O)OCC)C(F)(F)F (stereo unspecified)
testedSystem: OVCAR-4
category: inactive
//
compound: COc1ccc(OC)c(CC(=O)c2ccc(O)c(C(=O)NCCc3ccc(F)cc3)c2)c1
testedSystem: OVCAR-4
category: inactive
//
compound: Fc1c(F)c(F)c(CSc2nc3ccccc3[nH]2)c(F)c1F
testedSystem: OVCAR-4
category: inactive
//
compound: CCOC(=O)c1c(-c2cccc3ccccc23)c(C#N)c(=S)n(C2OC(COC(C)=O)C(OC(C)=O)C(OC(C)=O)C2OC(C)=O)c1C (stereo unspecified)
testedSystem: OVCAR-4
category: inactive
//
compound: Cc1nc(-n2[nH]c(C)c(CCO)c2=O)[nH]c(=O)c1CCO
testedSystem: OVCAR-4
category: inactive
//
compound: COc1ccccc1CC(=O)C(O)(C(F)(F)F)C(F)(F)F
testedSystem: OVCAR-4
category: inactive
//
compound: Cc1cc(Cl)cc2c1NC(=O)C2(O)CC(=O)c1ccc(F)cc1 (stereo unspecified)
testedSystem: OVCAR-4
category: inactive

Q. Query: recorded result category for `COc1ccccc1NC(=O)C1=C(C)NC(C)=C(C(=O)Nc2ccccc2OC)C1c1ccco1` in this test
A. inactive

---

system: A498; test: NCI tumour cell line growth inhibition, 48 h
Active and inactive are the calls of the source. Cut-off read from the data, not from the text of the source: active = GI50 up to about 1.1 µM and inactive = higher.
Write down the outcome that applies. Available outcomes: active, inactive

Known results for compounds:
compound: Nc1cc2nc(O)c(O)nc2cc1N
testedSystem: A498
category: inactive
--
compound: O=C(/C=C/c1ccc(O)cc1)c1ccc2c(c1)OCO2
testedSystem: A498
category: inactive
--
compound: O=C(n1c(=O)n(-c2ccc([N+](=O)[O-])cc2)c(=O)n1C(=O)C(Cl)(Cl)Cl)C(Cl)(Cl)Cl
testedSystem: A498
category: inactive
--
compound: c1n[nH]cc1C12C3C4C5C3C1C5C42 (centres undefined)
testedSystem: A498
category: inactive
--
compound: CCOC(=O)CNC(=O)C(CCC(=O)N(C)O)NC(=O)CCC(N)C(=O)O (centres undefined)
testedSystem: A498
category: inactive

Here is the next item to consider.
Q. Query: recorded result category for `CCOC(=O)C(=Cc1ccccc1Cl)C(=O)OCC` in this test
A. inactive

---

system: LXFL 529; assay: NCI tumour cell line growth inhibition, 48 h
The source made the active and inactive calls. Cut-off read from the data, not from the text of the source: active = GI50 up to about 1.1 µM and inactive = higher.
Write down the outcome that applies. Available outcomes: active, inactive

compound: CCCCOC(=O)N[C@H]1CCc2cc(OC)c(OC)c(OC)c2-c2ccc(SC)c(=O)cc21
category: active
--
compound: COc1ccc(C(=O)C#Cc2cnc(O)nc2O)cc1
category: inactive

Here is the next item to consider.
Q. Query: recorded result category for Nc1cc2c(C3OC(CO)C(O)C3O)n[nH]c2c(=S)[nH]1 (configuration not stated) in this test
A. inactive

---

Measured GI50 of individual entries
tested on: UACC-257; assay: NCI tumour cell line growth inhibition, 48 h
Active and inactive are the calls of the source. Cut-off read from the data, not from the text of the source: active = GI50 up to about 1.1 µM and inactive = higher.

Answered examples (10):
molecule: OCC1OC(n2nc(-c3ccccc3)nc2-c2cnccn2)C(O)C1O (stereo not given)
resultValue: > 100 µM (inactive)

molecule: COc1ccccc1CC(=O)C(O)(C(F)(F)F)C(F)(F)F
resultValue: > 100 µM (inactive)

molecule: CCCCCCCC(=O)OC[n+]1ccc(-c2c(COC(=O)NC(C)C)c(COC(=O)NC(C)C)c3n2CCC3)cc1
resultValue: 70.6 µM (inactive)

molecule: C1COCCSC2=C(SCCO1)SC(=C1SC3=C(SCCOCCOCCS3)S1)S2
resultValue: > 100 µM (inactive)

molecule: CC(C)(C)C(=O)C(C#N)C(=O)C(C)(C)C
resultValue: > 100 µM (inactive)

molecule: c1n[nH]cc1C12C3C4C5C3C1C5C42 (stereo not given)
resultValue: > 100 µM (inactive)

molecule: Cc1cc(C)n(-c2nc3ccccc3c(=O)[nH]2)n1
resultValue: 33.6 µM (inactive)

molecule: CC(C)N(/C(F)=N\C(=O)Nc1ccccc1C(F)(F)F)C(C)C
resultValue: 55.1 µM (inactive)

molecule: Cc1cc(C)c(S(=O)(=O)N2CCCN(S(=O)(=O)c3c(C)cc(C)cc3C)OCCCON(S(=O)(=O)c3c(C)cc(C)cc3C)CCCN(S(=O)(=O)c3c(C)cc(C)cc3C)OCCCO2)c(C)c1
resultValue: > 100 µM (inactive)

molecule: CNC(=S)NN=C1NCCCN1
resultValue: > 100 µM (inactive)

Q. State the recorded GI50 for this entry: `Cc1nc2sccn2c1C(=O)N/N=C1\SCC(=O)N1C`
A. > 100 µM (inactive)

Q. Further, for C[C@]12CCC(=O)C=C1CC[C@@H]1[C@@H]2[C@@H](O)C[C@@]2(C)[C@H]1CC[C@]2(O)C(=O)CO [HYDROCORTISONE] ?
A. > 100 µM (inactive)

Q. Further, for `CCN(CCCN(CC)C(=O)N[C@@H](Cc1ccccc1)C(=O)NC)C(=O)N[C@@H](Cc1ccccc1)C(=O)NC` ?
A. > 100 µM (inactive)

Q. Further, for `CC1=C(C(=O)Nc2ccc(Cl)c(Cl)c2)C(c2ccco2)C(C(=O)Nc2ccc(Cl)c(Cl)c2)=C(C)N1` ?
A. 14.7 µM (inactive)

Q. Further, for `Cc1ccc(C(=O)/C=C2\Nc3ccccc3SC2=O)c(C)c1` ?
A. 42 µM (inactive)
